Tested on: IGROV
Experiment: SRB colorimetric cell growth inhibition assay, IGROV
Type: cell-based
Conditions: IGROV; GI=growth inhibition; read-out: GI50 IGROV

| Molecule | GI50 [nM] |
| --- | --- |
| COc1cc(-c2c3c4cc(OC)c(OC(=O)[C@H](C)N)cc4oc(=O)c3n3ccc4c(OC(=O)[C@H](C)N)c(OC)c(OC)cc4c23)ccc1OC(=O)[C@H](C)N [Compound 16] | 226 |
| COc1cc(-c2c3c4cc(OC)c(OC(=O)[C@@H](N)C(C)C)cc4oc(=O)c3n3ccc4c(OC(=O)[C@@H](N)C(C)C)c(OC)c(OC)cc4c23)ccc1OC(=O)[C@@H](N)C(C)C | 134 |
| COc1cc(-c2c3n(c4c(=O)oc5cc(OC(C)=O)c(OC)cc5c24)CCc2cc(OC)c(OC(C)=O)cc2-3)ccc1OC(C)=O | 1830 |
| COc1cc2ccn3c(c(-c4ccc(OC(=O)[C@@H](N)C(C)C)c(OC)c4)c4c5cc(OC)c(OC(=O)[C@@H](N)C(C)C)cc5oc(=O)c43)c2cc1OC | 490 |
| COc1cc(-c2c3c4cc(OC)c(OC(=O)[C@@H](N)Cc5ccccc5)cc4oc(=O)c3n3ccc4c(OC(=O)[C@@H](N)Cc5ccccc5)c(OC)c(OC)cc4c23)ccc1OC(=O)[C@@H](N)Cc1ccccc1 [Compound 207] | 76.3 |
| COc1cc(-c2c3n(c4c(=O)oc5cc(OS(C)(=O)=O)c(OC)cc5c24)CCc2cc(OS(C)(=O)=O)c(OC)cc2-3)ccc1OS(C)(=O)=O | 787 |
| COc1cc2ccn3c(c(-c4ccc(OC(=O)[C@@H](N)Cc5ccccc5)c(OC)c4)c4c5cc(OC)c(OC(=O)[C@@H](N)Cc6ccccc6)cc5oc(=O)c43)c2cc1OC | 1310 |
| COc1cc(-c2c3c4cc(OC)c(OC(=O)[C@@H](N)Cc5ccccc5)cc4oc(=O)c3n3ccc4c(OC(=O)[C@@H](N)Cc5ccccc5)c(OC)c(OC)cc4c23)ccc1OC(=O)[C@@H](N)Cc1ccccc1 [Compound 31] | 1260 |
| COc1cc(-c2c3c4cc(OC)c(OC(=O)[C@H](C)N)cc4oc(=O)c3n3ccc4cc(O)c(OC)cc4c23)ccc1O.Cl | 136 |
| COc1cc(-c2c3n(c4c(=O)oc5cc(OC(=O)[C@@H](N)C(C)C)c(OC)cc5c24)CCc2cc(OC(=O)[C@@H](N)C(C)C)c(OC)cc2-3)ccc1OC(=O)[C@@H](N)C(C)C [Compound 37] | 577 |
| COc1cc(-c2c3n(c4c(=O)oc5cc(OC(=O)[C@@H](N)C(C)C)c(OC)cc5c24)CCc2cc(OC(=O)[C@@H](N)C(C)C)c(OC)cc2-3)ccc1OC(=O)[C@@H](N)C(C)C [Compound 135] | 2100 |
| COc1cc(-c2c3c4cc(OC)c(OC(=O)[C@H](C)N)cc4oc(=O)c3n3ccc4c(OC(=O)[C@H](C)N)c(OC)c(OC)cc4c23)ccc1OC(=O)[C@H](C)N [Compound 191] | 458 |
| COc1cc2c(cc1O)oc(=O)c1c2c(-c2ccc(OC(=O)[C@H](C)N)c(OC)c2)c2c3cc(OC)c(O)cc3ccn21.Cl | 79.9 |
